Where do the numbers come from? From ChEMBL document CHEMBL1147883.

assay-remarks: Insulinotropic activity in RIN5F cells assessed as stimulation of glucose-dependent insulin secretion per microgram of protein at 10 uM
Type: functional, Rattus norvegicus
Give Activity for every item shown.
Just the number in pg/h, nothing appended.

Requested field: Activity. Item: N=C(N)Nc1c(-c2ccccc2)[nH]c2ccc(Cl)cc12
35.5

Name the reported Activity value associated with the compound N=C(N)Nc1c(-c2ccccc2)sc2ncccc12
27.9

// returns reported Activity for input N=C(N)Nc1c(-c2ccccc2)[nH]c2ncc(Cl)cc12
33.1

What Activity value was documented for this compound, CCc1sc2ncc(Cl)cc2c1NC(=N)N ?
31.5

Reported Activity for N=C(N)Nc1c(C2CCCCC2)sc2ncc(Cl)cc12 : what is it?
14.5

Quick check: Activity of N=C(N)Nc1c(Cc2ccccc2)[nH]c2ncc(Cl)cc12 ?
15

Requested read-out: Activity. Entry: CCc1sc2ncccc2c1NC(=N)N
14.6

What value of Activity has been recorded for this entry: N=C(N)Nc1c(C2CCCCC2)[nH]c2ccccc12
15.1

I'd like to know its Activity. The compound in question is N=C(N)Nc1c[nH]c2ncc(Cl)cc12
14.6

Returns the measured Activity for the input compound. Input: N=C(N)Nc1c(Cc2ccccc2)sc2ncccc12
14.5
